ASSAY_PROCEDURE: Intrinsic clearance in human liver microsomes at 1 uM preincubated for 3 mins followed by NADPH addition and measured up to 60 mins by LC-MS/MS analysis
Format: ADME, Microsome
SETUP_CONDITIONS: 1 h, time <=63 min
RECORDED_METRIC: CLint (µL/min/mg)
Dear colleague, please return just the value in µL/min/mg, with no unit written.

Reference set (2 entries):
O=C(NO)c1ccc(Nc2c3ccccc3nc3ccc(Br)cc23)cc1    36.6
C[C@]12CC[C@H]3[C@@H](CCC4=CC(=O)CC[C@@]43C)[C@@H]1CC[C@@H]2O [TESTOSTERONE]    54

Please find the next compound below.
Fill in the blank: the reported CLint of O=C(NO)c1ccc(Nc2c3ccccc3nc3ccccc23)cc1 is ____.
40.7
